Target: Human Type I 5'-Deiodinase (Homo sapiens, UniProt P49895)
Construct: expressed in transfected cells; host or cells: COS-7 cells (cell sonicate)
Sequence (P49895 1-249): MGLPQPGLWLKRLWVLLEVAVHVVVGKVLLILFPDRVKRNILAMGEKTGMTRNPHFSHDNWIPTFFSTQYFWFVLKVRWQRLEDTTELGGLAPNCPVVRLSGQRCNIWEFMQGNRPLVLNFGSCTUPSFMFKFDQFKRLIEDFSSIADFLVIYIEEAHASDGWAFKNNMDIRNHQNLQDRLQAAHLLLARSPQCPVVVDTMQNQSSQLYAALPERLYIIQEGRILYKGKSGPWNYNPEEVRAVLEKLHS
Test: Kinetics of rT3 deiodination, enzyme transiently expressed in COS-7 cells
Format: biochemical
Measured quantity: Ki (µM)
Give bare numbers, in µM.

Inquiry: Please look up its Ki: N[C@@H](Cc1cc(I)c(Oc2cc(I)c(O)c(I)c2)c(I)c1)C(=O)O
Reply text: 6.2

* * *

target: Human Type I 5'-Deiodinase (Homo sapiens); construct: expressed in transfected cells; host or cells: COS-7 cells (cell sonicate); assay: Kinetics of rT3 deiodination, enzyme transiently expressed in COS-7 cells; assay type: biochemical; conditions: Ki (PTU · rT3), 10 mM DTT; uncompetitive inhibitor of rT3 deiodination; apparent
Measured quantity: pKi
One number for each entry, as −log10 of the molar value.

Inquiry: Query the reported pKi for Human Type I 5'-Deiodinase (Homo sapiens); item: CCCc1cc(=O)[nH]c(=S)[nH]1 [PTU, propylthiouracil]
Reply text: 6.77

* * *

biological target: Human Type I 5'-Deiodinase (Homo sapiens); construct: expressed in transfected cells; host or cells: COS-7 cells (cell sonicate); experiment: Kinetics of rT3 deiodination, enzyme transiently expressed in COS-7 cells; assay type: biochemical; settings: Ki (PTU · DTT), competitive with respect to DTT; apparent
Measured quantity: Ki (nM)
Answers are plain numbers, in nM.

Inquiry: Given CCCc1cc(=O)[nH]c(=S)[nH]1 , state its recorded Ki.
Reply text: 14
